Reported apparent Kd by item:
test system: MS2 coat protein; assay: apparent Kd, MS2 coat protein; higher = weaker binding; RNA-MaP array; FMN 200 µM where present; settings: designed as: OFF switch for flavin mononucleotide; no ligand
Answer in nM, number only, no unit symbol.

CCUAGUUGGUAAGGAUAUCCUACACUGUUCUGACCCGUGCAAGCUACAUGAGGAUCACCCAUGUGGGAGAAGGUGCGUCGACGC
24
UUAAUUUGAUGAUAUUAUGACAUUAGAAGGCUGUACAUGUUGAUACAUGAGGAUCACCCAUGUAUAGAGGAUAUAGACAAUUUU
40.9
GUGAGGUCAGGAUAUGCAUGGCGGGACUUGCGUCGUGGCGUGGAGAAGGGACAUGAGGAUCACCCAUGUGGAGG
115
GUGUACAGAGGAUAUAUAUGAGCAUGGAAACAUGCAUCUUCACAUGAGGAUCACCCAUGUAGAAGGCUGUACAC
15.7
ACAUCUCGAGCCGACGGGAGAGUACAUGAGGAUCACCCAUGUGAGGAUAUCCCUGAGAAGACGGCGGAGAAGGCACUGGGUAGG
6.33

Record "UGUGCGUAUGUGAGGAUAUGCUGGUCCUUGGAUCGGCAGAAGGCACAUGAGGAUCACCCAUGUGGUGUCGUUCU" . Reported apparent Kd: 389

Lab note: "GUUUUGGGAGGAUAUGCGUGGAUUAUUUUCGUAUGUUGUUUACAUGAGGAUCACCCAUGUAGAAGGUCUAGAGC" gave apparent Kd of 39.7

Reported apparent Kd for "UUUAUUUCGGCAGGAUAUACAUGUAUAUAUAUUUCUUCAUAUCUUAUUACAUGAGGAUCACCCAUGUAGAAGGGCCUUCUUCUC" was 65.6

The sequence listed as "UUAAAUCAUGUAGGAUAUGCAUGGCGAAGCUACGCAGAAGGACAUGAGGAUCACCCAUGUUAUAGCGACCAAGUAAGGUUGCAA" shows apparent Kd equal to 91.6

The recorded apparent Kd for "AAUAUAAGAGCUGGUACUCAAAGAACAUGAGGAUCACCCAUGUAGGAUAUCAGCACGAUAAGUGCUGAGAAGGACAUCCAGCUC" is 15.8

The measured apparent Kd associated with "AUCUCACAUGAGGAUCACCCAUGUUAGGAUAUUGUUUCUUGAUGAUUACAUCAAGCGAUAAGAAGGGACAGACU" reads 25.6

Lab book: apparent Kd of "UUCAGACAUGAGGAUCACCCAUGUGAGGAUAUGAUGCGAUCGUCGAAAGACGAUAGCAUCAGAAGGCACGUAUG" noted as 82.9

Lab note: measured apparent Kd of "GGAAAAUGAGGAUAUACAUGUUUGAUACCUCUACGCCCGCAACAUGAGGAUCACCCAUGUAGAAGGCAUGAAAA" was 15.4

The origin of these recorded values is the EternaBench riboswitch data.
